# testName: in vivo
# conditions: mouse, po, mice
readoutLabel: LD50 (mg/kg)
Hi! Could you send only the number? It should be in mg/kg, unit omitted.

query: Quick one: LD50 for COc1ccccc1N1CCN([C@H](C)[C@H](O)c2ccccc2)CC1 (racemic) ?
result: 674

* * *

# System: Kunming mice
# testName: Acetic acid-induced abdominal writhing test in mice
# Type: in vivo
# conditions: 10 mg/kg Ig, 1 h before 0.7% acetic acid i.p.
The threshold is inclusive: Inhibition percentage of writhing response of exactly 50% counts as t; values below receive f.

compound=COc1ccccc1N1CCN([C@@H](C)[C@H](O)c2ccccc2)CC1 measuredtarget="Kunming mice" cat=f
compound="C[C@H]([C@H](O)c1ccccc1)N1CCN(c2cccc(Cl)c2)CC1 (racemic)" measuredtarget="Kunming mice" cat=f
compound="COc1ccc(N2CCN([C@@H](C)[C@H](O)c3ccccc3)CC2)cc1 (racemic)" measuredtarget="Kunming mice" cat=t
compound="COc1ccccc1N1CCN([C@H](C)[C@H](O)c2ccccc2)CC1 (racemic) [Compound I-20]" measuredtarget="Kunming mice" cat=f

Now for another entry.
query: Quick check: does C[C@H]([C@H](O)c1ccccc1)N1CCN(c2cccc(C(F)(F)F)c2)CC1 (racemic) have Inhibition percentage of writhing response greater than or equal to 50%?
result: f
